Recorded pIC50 for the following compounds
- Test system: GM1 production in Jurkat cells
- Assay text: cells
- Format: cell-based
- Particulars: Homo sapiens, Jurkat, 72 h
pIC50: −log10 of the molar value.

Compound | pIC50
O=C(NC1CCOc2cc(-c3ccc(Cl)cc3)ccc21)O[C@@H]1CN2CCC1CC2 (some centres unmarked) [Example 14] | 7.38
CC1(C)COc2cc(-c3cc4ccccc4s3)ccc2C1NC(=O)O[C@@H]1CN2CCC1CC2 (some centres unmarked) [Example 208] | 8.61
COc1ncccc1-c1ccc2c(c1)OCC(C)(C)C2NC(=O)O[C@@H]1CN2CCC1CC2 (some centres unmarked) [Example 245] | 8.33
CC1(NC(=O)O[C@@H]2CN3CCC2CC3)CCOc2cc(-c3cccc(F)c3)ccc21 (some centres unmarked) [Example 298] | 8.26
O=C(NC1CCOc2cc(-c3ccsc3)ccc21)O[C@@H]1CN2CCC1CC2 (some centres unmarked) [Example 64] | 7.72
CC1(C)COc2cc(-c3cc4ccccc4o3)ccc2C1NC(=O)O[C@@H]1CN2CCC1CC2 (some centres unmarked) [Example 183] | 8.19
CC1(C)COc2cc(-c3cccc4ccncc34)ccc2C1NC(=O)O[C@@H]1CN2CCC1CC2 (some centres unmarked) [Example 160] | 9.27
CC1(C)COc2cc(-c3cccc(F)c3F)ccc2C1NC(=O)O[C@@H]1CN2CCC1CC2 (some centres unmarked) [Example 239] | 8.32

Data origin: patent US12673944B2
